Assay name: Therapeutic index, CC50 for human 293T cells to EC50 for G-pseudotyped HIV
Format: cell-based
Protocol conditions: read-out: Ratio CC50/EC50
Parameter selectivity ratio: see the listing below.
Reported metric: selectivity ratio

> print(dat)
                           structure.smiles    reported.metric  censoring.operator  experimental.result
1  O=C(O)c1cccc(-c2nc(-c3nnc(Cc4ccc(F)cc4)o3)c(O)c3ncccc23)c1  selectivity ratio                   >                   60
2  Oc1c(-c2nnc(Cc3ccc(F)cc3)o2)nc(-c2ccccc2)c2cccnc12  selectivity ratio                   =                   49
3  Cc1ccn(-c2nc(-c3nnc(Cc4ccc(F)cc4)o3)c(O)c3ncccc23)n1  selectivity ratio                   =                   23
4  CNc1nc(-c2nnc(Cc3ccc(F)cc3)o2)c(O)c2ncccc12  selectivity ratio                   =                   30
5  NC(=O)c1ccc(-c2nc(-c3nnc(Cc4ccc(F)cc4)o3)c(O)c3ncccc23)cc1  selectivity ratio                   =                 1220
